Test system: HUVEC
EXPERIMENTAL_PROTOCOL: Antiproliferative activity against VEGF stimulated HUVEC cells assessed as reduction in cell viability incubated for 72 hrs by MTT assay
MEASUREMENT_SETUP: Homo sapiens
pIC50: −log10 of the molar value.
REPORTED_ENDPOINT: pIC50

## Task Please report pIC50 with HUVEC for item Cc1cc2cc(Oc3ccnc(Nc4cccc(CS(=O)(=O)NCCN(C)C)c4)n3)ccc2[nH]1 .
## Result > 7.30

###

TESTED_ON: Tyrosine-protein kinase Mer (Homo sapiens, UniProt Q12866)
Sequence (Q12866 whole entry): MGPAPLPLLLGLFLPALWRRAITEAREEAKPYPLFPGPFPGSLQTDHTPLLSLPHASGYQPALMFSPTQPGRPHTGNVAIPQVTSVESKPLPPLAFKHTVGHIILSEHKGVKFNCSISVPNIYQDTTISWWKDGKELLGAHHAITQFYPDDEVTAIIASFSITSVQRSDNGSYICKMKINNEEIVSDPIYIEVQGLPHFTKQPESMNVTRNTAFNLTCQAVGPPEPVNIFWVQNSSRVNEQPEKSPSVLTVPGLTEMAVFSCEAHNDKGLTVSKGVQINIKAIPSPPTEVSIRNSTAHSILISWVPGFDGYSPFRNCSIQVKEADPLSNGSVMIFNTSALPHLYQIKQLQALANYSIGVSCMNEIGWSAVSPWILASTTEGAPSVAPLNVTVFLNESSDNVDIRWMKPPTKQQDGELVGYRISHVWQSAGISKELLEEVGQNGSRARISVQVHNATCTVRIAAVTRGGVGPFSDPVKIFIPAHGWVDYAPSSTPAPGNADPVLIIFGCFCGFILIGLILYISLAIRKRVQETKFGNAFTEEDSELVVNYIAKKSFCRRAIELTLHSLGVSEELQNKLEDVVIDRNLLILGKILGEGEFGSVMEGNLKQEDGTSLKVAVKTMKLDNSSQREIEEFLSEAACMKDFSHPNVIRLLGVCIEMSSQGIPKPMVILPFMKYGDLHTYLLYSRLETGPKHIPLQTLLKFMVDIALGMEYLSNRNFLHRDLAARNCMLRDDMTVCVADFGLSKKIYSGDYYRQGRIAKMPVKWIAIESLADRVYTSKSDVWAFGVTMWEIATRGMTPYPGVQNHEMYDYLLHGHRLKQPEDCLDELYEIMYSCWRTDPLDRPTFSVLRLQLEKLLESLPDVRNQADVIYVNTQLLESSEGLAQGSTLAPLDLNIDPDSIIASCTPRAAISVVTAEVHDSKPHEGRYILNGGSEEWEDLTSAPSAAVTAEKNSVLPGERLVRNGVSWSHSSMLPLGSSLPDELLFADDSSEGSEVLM
REPORTED_ENDPOINT: pIC50
One number for each entry, as −log10 of the molar value.

## Task Please report the measured pIC50 for Cc1cc2cc(Oc3ccnc(Nc4cccc(CS(=O)(=O)NCCN(C)C)c4)n3)ccc2[nH]1
## Result 8.40

###

EXPERIMENTAL_PROTOCOL: Oral bioavailability in CD-1 mouse at 3 mg/kg
Assay type: ADME, organism-based
MEASUREMENT_SETUP: in vivo
REPORTED_ENDPOINT: bioavailability (%)
Numbers only, in %.

RECORD_SMILES	REPORTED_ENDPOINT	MEASURED_RESULT
Cn1cc(-c2cc(Oc3ccc(NC(=O)N4CCC5(CCC(F)(F)CC5)C4=O)nc3)ccn2)cn1	bioavailability	100

## Task Please report the measured bioavailability for Cn1cc(-c2cc(Oc3ccc(NC(=O)N4CCC5(CCC5)C4=O)nc3)ccn2)cn1
## Result 100

###

EXPERIMENTAL_PROTOCOL: Metabolic stability in mouse liver microsomes assessed as half life
Format: ADME, Microsome
REPORTED_ENDPOINT: half-life

## Task Please report the measured half-life for COc1ccc(N(C(=O)Nc2c(C)cccc2C)c2cc(Nc3ccc(N4CCN(C)CC4)cc3)ncn2)c(OC)c1
## Result > 2 h

###

TESTED_ON: UniProt:P09581
EXPERIMENTAL_PROTOCOL: Inhibition of CSF1R autophosphorylation in mouse RAW264.7 cells measured after 4 hrs by Western blot analysis
Format: cell-based
REPORTED_ENDPOINT: IC50 (nM)
Answers are plain numbers, in nM.

## Task Please report the measured IC50 for COc1ncc(F)cc1CNc1ccc(Cc2c[nH]c3ncc(C)cc23)c(F)n1
## Result 26

###

EXPERIMENTAL_PROTOCOL: Half life in Sprague-Dawley rat at 10 mg/kg, po or 1 mg/kg, iv by LC-MS/MS analysis
Assay type: ADME, organism-based
MEASUREMENT_SETUP: in vivo
REPORTED_ENDPOINT: half-life (h)
Numbers only, in h.

## Task Please report the measured half-life for CNc1ccc(-c2cnc(Nc3cnc(C4CC4)nc3)cc2C)c2c1C(=O)NC2
## Result 2.53

###

TESTED_ON: Macrophage colony-stimulating factor 1 receptor (Mus musculus)
Sequence (P09581 whole entry): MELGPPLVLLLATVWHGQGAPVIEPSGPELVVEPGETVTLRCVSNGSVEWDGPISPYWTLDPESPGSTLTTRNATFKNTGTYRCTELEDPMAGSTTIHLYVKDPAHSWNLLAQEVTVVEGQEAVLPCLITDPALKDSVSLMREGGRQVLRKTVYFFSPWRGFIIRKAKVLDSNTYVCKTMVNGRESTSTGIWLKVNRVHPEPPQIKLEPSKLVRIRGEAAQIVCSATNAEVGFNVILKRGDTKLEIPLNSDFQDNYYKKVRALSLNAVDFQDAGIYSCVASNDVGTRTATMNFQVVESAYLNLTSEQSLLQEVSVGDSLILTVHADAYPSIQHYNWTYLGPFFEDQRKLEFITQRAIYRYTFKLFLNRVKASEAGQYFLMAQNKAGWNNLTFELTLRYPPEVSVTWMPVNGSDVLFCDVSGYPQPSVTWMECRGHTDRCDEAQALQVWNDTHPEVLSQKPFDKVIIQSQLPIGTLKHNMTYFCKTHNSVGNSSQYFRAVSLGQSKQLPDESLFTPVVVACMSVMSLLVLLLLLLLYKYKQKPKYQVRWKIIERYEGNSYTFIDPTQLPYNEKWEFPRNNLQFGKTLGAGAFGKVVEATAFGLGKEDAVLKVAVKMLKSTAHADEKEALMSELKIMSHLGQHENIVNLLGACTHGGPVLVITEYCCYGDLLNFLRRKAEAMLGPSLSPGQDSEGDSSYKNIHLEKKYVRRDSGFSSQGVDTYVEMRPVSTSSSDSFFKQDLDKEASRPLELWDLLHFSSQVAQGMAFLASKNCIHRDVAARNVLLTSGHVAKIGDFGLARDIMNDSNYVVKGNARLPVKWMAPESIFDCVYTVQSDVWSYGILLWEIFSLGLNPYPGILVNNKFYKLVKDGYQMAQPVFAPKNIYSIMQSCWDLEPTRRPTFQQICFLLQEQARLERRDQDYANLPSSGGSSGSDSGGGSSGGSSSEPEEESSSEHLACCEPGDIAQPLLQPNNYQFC
EXPERIMENTAL_PROTOCOL: Inhibition of CSF1R in mouse BMDM cells
Assay type: cell-based
REPORTED_ENDPOINT: IC50 (nM)
Give bare numbers, in nM.

MOLECULE	UNIT_OF_MEASURE	IC50
Cc1cc(NC(=O)c2cccc3cc(-c4cccc5[nH]nc(N)c45)ccc23)ccc1F	nM	93

Now look at this entry.
## Task Please report the measured IC50 for CCN(CC)CCNC(=O)c1c(C)[nH]c(/C=C2\C(=O)Nc3ccc(F)cc32)c1C [SUNITINIB]
## Result 4.1

###

EXPERIMENTAL_PROTOCOL: Inhibition of FGFR (unknown origin)
Parameters: species or system Homo sapiens
REPORTED_ENDPOINT: IC50
Show the value, then the unit it is measured in.

## Task Please report the measured IC50 for COc1cc(OC)c(Cl)c(-c2ccc3c(NC(=O)c4ccc(N5CCNC(C)(C)C5)cc4)n[nH]c3n2)c1Cl
## Result 17.3 nM

###

TESTED_ON: UniProt P07333
Sequence (P07333 whole entry): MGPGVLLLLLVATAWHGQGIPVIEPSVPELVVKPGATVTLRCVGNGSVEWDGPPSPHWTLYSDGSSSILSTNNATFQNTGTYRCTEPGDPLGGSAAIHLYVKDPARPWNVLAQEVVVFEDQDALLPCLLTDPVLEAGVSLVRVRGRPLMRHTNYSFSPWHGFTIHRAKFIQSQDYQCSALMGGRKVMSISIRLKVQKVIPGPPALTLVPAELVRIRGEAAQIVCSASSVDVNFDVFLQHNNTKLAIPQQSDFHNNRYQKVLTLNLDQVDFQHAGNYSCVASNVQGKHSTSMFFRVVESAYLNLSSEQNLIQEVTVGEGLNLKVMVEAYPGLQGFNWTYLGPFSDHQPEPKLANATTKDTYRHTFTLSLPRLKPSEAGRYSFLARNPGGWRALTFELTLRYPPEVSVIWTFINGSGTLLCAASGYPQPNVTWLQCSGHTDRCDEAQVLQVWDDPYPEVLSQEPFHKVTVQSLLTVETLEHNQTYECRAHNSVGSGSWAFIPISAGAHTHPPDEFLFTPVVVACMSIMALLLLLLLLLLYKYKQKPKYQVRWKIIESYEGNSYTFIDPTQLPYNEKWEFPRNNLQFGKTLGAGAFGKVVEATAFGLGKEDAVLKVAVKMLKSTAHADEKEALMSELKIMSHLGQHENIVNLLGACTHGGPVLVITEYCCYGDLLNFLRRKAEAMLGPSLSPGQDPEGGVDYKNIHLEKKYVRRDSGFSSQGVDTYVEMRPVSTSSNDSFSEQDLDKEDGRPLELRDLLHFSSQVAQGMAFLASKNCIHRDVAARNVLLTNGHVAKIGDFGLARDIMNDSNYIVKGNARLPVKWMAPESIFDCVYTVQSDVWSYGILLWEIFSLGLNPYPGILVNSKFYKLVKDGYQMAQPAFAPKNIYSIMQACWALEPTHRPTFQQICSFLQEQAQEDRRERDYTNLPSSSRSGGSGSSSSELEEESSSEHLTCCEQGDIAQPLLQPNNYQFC
REPORTED_ENDPOINT: Kd

## Task Please report the measured Kd for CCn1cc(OCC(F)(F)F)c(C(=O)Nc2ccc(Oc3ccnc4cc(OC)c(OC)cc34)cn2)n1
## Result < 100 nM

###

EXPERIMENTAL_PROTOCOL: Unbound fraction in mouse plasma
Format: ADME, cell-free
REPORTED_ENDPOINT: fraction unbound
Answers are plain numbers.

## Task Please report the measured fraction unbound for COc1ccc(N2C(=O)N(c3c(C)cccc3Cl)Cc3cnc(Nc4ccc(C5CCN(C)CC5)cc4OC)nc32)nc1
## Result 0.06

###

EXPERIMENTAL_PROTOCOL: Solubility of compound in PBS at pH 7.4
Assay type: physicochemical
REPORTED_ENDPOINT: solubility (µM)
Answers are plain numbers, in µM.

## Task Please report the measured solubility for COc1ccc(N2C(=O)N(c3c(C)cccc3Cl)Cc3cnc(Nc4ccc(C5CCN(C)CC5)cc4OC)nc32)nc1
## Result 428

###

TESTED_ON: RAF proto-oncogene serine/threonine-protein kinase (Homo sapiens, UniProt P04049)
Sequence (P04049 whole entry): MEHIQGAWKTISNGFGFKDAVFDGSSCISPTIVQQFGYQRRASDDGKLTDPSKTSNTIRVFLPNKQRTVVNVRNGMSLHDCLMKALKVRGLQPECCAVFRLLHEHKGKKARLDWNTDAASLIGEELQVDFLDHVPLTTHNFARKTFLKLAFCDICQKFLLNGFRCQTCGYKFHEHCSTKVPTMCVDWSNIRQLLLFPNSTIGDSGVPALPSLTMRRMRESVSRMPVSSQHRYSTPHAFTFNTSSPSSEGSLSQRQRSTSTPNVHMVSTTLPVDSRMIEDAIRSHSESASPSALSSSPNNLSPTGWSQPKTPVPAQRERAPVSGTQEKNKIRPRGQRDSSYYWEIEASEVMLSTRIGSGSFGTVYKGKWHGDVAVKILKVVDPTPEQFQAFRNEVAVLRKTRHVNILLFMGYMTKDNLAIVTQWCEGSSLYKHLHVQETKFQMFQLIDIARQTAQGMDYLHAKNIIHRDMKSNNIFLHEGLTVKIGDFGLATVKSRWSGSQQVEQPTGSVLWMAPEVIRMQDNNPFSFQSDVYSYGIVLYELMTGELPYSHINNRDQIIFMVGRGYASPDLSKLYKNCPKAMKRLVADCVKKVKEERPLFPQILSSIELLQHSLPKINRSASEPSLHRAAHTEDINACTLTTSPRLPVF
REPORTED_ENDPOINT: IC50 (nM)
Give bare numbers, in nM.

## Task Please report IC50 with RAF proto-oncogene serine/threonine-protein kinase (Homo sapiens, UniProt P04049) for item O=C(Nc1ccc(OC(F)(F)F)cc1)c1sccc1NCc1ccnc2ccccc12 .
## Result 15

###

TESTED_ON: UniProt:P35968
Sequence (P35968 whole entry): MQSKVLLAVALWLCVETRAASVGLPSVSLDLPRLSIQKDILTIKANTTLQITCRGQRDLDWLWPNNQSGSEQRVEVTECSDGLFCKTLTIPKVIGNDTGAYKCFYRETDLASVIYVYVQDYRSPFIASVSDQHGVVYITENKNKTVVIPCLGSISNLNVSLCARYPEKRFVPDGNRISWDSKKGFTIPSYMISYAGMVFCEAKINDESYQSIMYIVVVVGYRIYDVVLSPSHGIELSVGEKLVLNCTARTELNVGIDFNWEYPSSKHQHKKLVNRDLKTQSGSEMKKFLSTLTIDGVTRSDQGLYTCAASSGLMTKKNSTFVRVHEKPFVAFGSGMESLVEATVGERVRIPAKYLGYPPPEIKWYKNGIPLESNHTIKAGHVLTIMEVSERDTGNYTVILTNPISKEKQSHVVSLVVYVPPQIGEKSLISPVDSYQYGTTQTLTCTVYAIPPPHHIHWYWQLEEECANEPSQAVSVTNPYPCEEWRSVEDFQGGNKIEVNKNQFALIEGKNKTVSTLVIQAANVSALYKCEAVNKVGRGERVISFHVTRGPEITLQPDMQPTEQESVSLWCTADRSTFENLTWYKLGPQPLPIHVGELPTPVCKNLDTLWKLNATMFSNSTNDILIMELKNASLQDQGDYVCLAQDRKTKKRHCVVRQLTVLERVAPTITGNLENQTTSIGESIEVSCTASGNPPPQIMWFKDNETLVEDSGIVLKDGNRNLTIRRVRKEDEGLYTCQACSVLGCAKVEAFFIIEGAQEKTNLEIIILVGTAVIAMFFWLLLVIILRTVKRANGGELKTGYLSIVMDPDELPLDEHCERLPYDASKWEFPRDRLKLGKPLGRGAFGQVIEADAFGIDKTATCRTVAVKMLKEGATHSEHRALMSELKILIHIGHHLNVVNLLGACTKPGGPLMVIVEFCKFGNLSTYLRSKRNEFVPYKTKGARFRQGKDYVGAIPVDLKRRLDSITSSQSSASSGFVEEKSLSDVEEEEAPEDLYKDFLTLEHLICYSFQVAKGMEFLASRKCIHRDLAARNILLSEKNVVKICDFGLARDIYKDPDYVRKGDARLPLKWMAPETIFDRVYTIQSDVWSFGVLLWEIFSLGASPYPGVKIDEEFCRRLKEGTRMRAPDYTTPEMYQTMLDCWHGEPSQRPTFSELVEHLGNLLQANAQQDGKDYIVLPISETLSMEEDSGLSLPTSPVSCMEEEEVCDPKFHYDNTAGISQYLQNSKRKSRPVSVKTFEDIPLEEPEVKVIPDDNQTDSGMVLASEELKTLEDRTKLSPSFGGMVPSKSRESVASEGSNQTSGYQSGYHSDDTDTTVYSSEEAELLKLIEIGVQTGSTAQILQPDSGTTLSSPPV
EXPERIMENTAL_PROTOCOL: Inhibition of human VEGFR2 in presence of ATP by mobility shift assay
REPORTED_ENDPOINT: IC50

## Task Please report the measured IC50 for CNC(=O)c1cccc2cc(Oc3ccnc(NC(=O)c4ccc(N5C[C@@H](C)N[C@@H](C)C5)cc4)c3)ccc12
## Result < 10 nM

Each recorded value in this set is attributed to ChEMBL document CHEMBL5620341.
